Exercise: for every item that follows, state its recorded target mRNA inhibition.
# Target System: MALAT1
# Condition Description: ASO, A431, 0.005 µM
After the bases stand the sugars from the 5' end (letter, count) and the backbone: PS all phosphorothioate, else s phosphorothioate and o phosphodiester by linkage. Methylation of C is not given here. k = constrained ethyl (cEt); d = 2'-deoxy (DNA)
Supply the numeric figure in %, leaving out any unit text.

Note to self: target mRNA inhibition recorded for ACTGCAAGGTCTCATA (sugars k3 d10 k3, PS) was -1

Recorded target mRNA inhibition (sequence AGAGTGTTCGCAGACA (sugars k3 d10 k3, PS) ): 57

Documented target mRNA inhibition of CCGCTTGAGATTTGGG (sugars k3 d10 k3, PS) : 28

Recorded target mRNA inhibition (sequence CACCACCTGGAATGGC (sugars k3 d10 k3, PS) ): 8

Short answer for CCGGAATTCGATCACC (sugars k3 d10 k3, PS) : target mRNA inhibition was 9

Per the record, CCCTCTAAGAGACATT (sugars k3 d10 k3, PS) has target mRNA inhibition of 32

----------
# Target System: KRAS
# Condition Description: ASO, NCI-H460, 0.037 µM
After the bases stand the sugars from the 5' end (letter, count) and the backbone: PS all phosphorothioate, else s phosphorothioate and o phosphodiester by linkage. Methylation of C is not given here. e = 2'-O-(2-methoxyethyl) (MOE); k = constrained ethyl (cEt); d = 2'-deoxy (DNA)
Give target mRNA inhibition for every item shown.
Unit % implied. Number only.

target mRNA inhibition value, target or system KRAS, for CCATTCAAAGTTCACA (sugars kkddddddddddkeke, PS) : 54.7

Record GCTATTAGGAGTCTTT (sugars k3 d10 k3, PS) / KRAS, target mRNA inhibition recorded as 69.9

For AATGGTGAATATCTTC (sugars k3 d10 k3, PS) on KRAS, measured target mRNA inhibition was 33.3

target mRNA inhibition for KRAS with input TGTTTATGCAATGTTA (sugars k3 d9 k3 e1, PS) equals 65.6

The sequence TTTAATGTCACAAGCA (sugars k3 d10 k3, PS) on KRAS: target mRNA inhibition was 44.2

Sample TGGTGTAACATAGGTT (sugars kkddddddddddkeke, PS) , system: KRAS. Its target mRNA inhibition is 64.3

----------
# Target System: IRF5
# Condition Description: ASO, KARPAS-229, 4 µM
After the bases stand the sugars from the 5' end (letter, count) and the backbone: PS all phosphorothioate, else s phosphorothioate and o phosphodiester by linkage. Methylation of C is not given here. e = 2'-O-(2-methoxyethyl) (MOE); k = constrained ethyl (cEt); d = 2'-deoxy (DNA)
Threshold rule: target mRNA inhibition greater than or equal to 1% is fulfilled; below that, not fulfilled.

Exercise: Dear colleague, could you confirm whether AGGTTCTTGGACTCTC (sugars kkddddddddkekekk, PS) has target mRNA inhibition at or above 1%?
Key: not fulfilled

Exercise: Quick check, target mRNA inhibition >= 1%? GCACTGACACAGGCGG (sugars kkddddddddkekekk, PS)
Key: not fulfilled

Exercise: Form field: target mRNA inhibition at least 1%? Entry: TAGGACGAGTTATGGG (sugars k3 d10 k3, PS)
Key: fulfilled

Exercise: Determine whether this sequence has target mRNA inhibition no lower than 1%: CAACATCCATCAATGA (sugars k3 d10 k3, PS)
Key: not fulfilled

Exercise: Test whether the sequence GTCTGGCCCTTTTGGA (sugars kkdddddddddkdkdk, PS) records target mRNA inhibition of 1% or higher.
Key: not fulfilled

Exercise: Does the sequence AGCTTGGTCTTGACCT (sugars kkddddddddddkeke, PS) have recorded target mRNA inhibition that is 1% or more?
Key: not fulfilled

Exercise: Does AGATGGTGTTATCTCC (sugars k3 d9 k3 e1, PS) have a reported target mRNA inhibition of at least 1%?
Key: not fulfilled

Exercise: Given TTCCAATTTTGCATTC (sugars k3 d10 k3, PS) , state whether its target mRNA inhibition is at least 1%.
Key: fulfilled

Exercise: Confirm if target mRNA inhibition reported for the sequence GAGTCTCAAACCAGGG (sugars kddddddddddkekek, PS) is 1% or above.
Key: not fulfilled

Exercise: Determine whether measured target mRNA inhibition meets or exceeds 1% for ATGAGTCATGGGCTGA (sugars kkddddddddkekekk, PS)
Key: not fulfilled

Exercise: Hi, just wondering whether TATCTCCGTCCTGGCT (sugars kkddddddddkekekk, PS) shows target mRNA inhibition of 1% or higher.
Key: fulfilled

Exercise: For this sequence, is measured target mRNA inhibition 1% or higher? GTCTTGACCTCCCGCT (sugars kkdddddddddkdkdk, PS)
Key: fulfilled

Exercise: Is it the case that ACCACTGTGTACCCCA (sugars kkkddddddddkdkdk, PS) has target mRNA inhibition reaching or exceeding 1%?
Key: fulfilled

Exercise: Quick check: does GAAGTGAGTCTCAAAC (sugars kddddddddddkekek, PS) have target mRNA inhibition greater than or equal to 1%?
Key: fulfilled

Exercise: For this sequence, is measured target mRNA inhibition 1% or higher? GCTGTCACATCTCCAC (sugars kkddddddddkekekk, PS)
Key: fulfilled

Exercise: Reported target mRNA inhibition at or above 1%? GATGGTGTTATCTCCG (sugars kkdddddddddkdkdk, PS)
Key: not fulfilled

Exercise: State whether the measured target mRNA inhibition reaches 1%, counting equality as reaching it, for GGTCTGGCCCTTTTGG (sugars kekdddddddddeekk, PS)
Key: fulfilled

Exercise: Please indicate if the recorded target mRNA inhibition for GGTCTTGACCTCCCGC (sugars kkkddddddddkdkdk, PS) meets or exceeds 1%.
Key: fulfilled

Exercise: # bool: target mRNA inhibition of GAGTCATGGGCTGAGG (sugars kkddddddddkekekk, PS) >= 1%
Key: not fulfilled

Exercise: Item TTATCTCCGTCCTGGC (sugars kkddddddddkekekk, PS) with target mRNA inhibition of 1% or above?
Key: not fulfilled
